Target or system Peroxisome proliferator-activated receptor gamma (Homo sapiens, UniProt P37231): recorded EC50 listed per item.

>  <structure>
Cc1cc(CCc2sc(-c3ccc(C(F)(F)F)cc3)nc2C)ccc1OCC(=O)O

>  <EC50>
10 µM

$$$$
>  <structure>
Cc1nc(-c2ccc(C(F)(F)F)cc2)sc1C(=O)NCCc1ccc(OC(C)(C)C(=O)O)cc1

>  <EC50>
> 10 µM

$$$$
>  <structure>
Cc1nc(C(=O)NCc2ccc(OC(C)(C)C(=O)O)cc2)c(C)s1

>  <EC50>
> 10 µM

$$$$

====

molecular target: Peroxisome proliferator-activated receptor delta (Homo sapiens)
Sequence (Q03181 whole entry): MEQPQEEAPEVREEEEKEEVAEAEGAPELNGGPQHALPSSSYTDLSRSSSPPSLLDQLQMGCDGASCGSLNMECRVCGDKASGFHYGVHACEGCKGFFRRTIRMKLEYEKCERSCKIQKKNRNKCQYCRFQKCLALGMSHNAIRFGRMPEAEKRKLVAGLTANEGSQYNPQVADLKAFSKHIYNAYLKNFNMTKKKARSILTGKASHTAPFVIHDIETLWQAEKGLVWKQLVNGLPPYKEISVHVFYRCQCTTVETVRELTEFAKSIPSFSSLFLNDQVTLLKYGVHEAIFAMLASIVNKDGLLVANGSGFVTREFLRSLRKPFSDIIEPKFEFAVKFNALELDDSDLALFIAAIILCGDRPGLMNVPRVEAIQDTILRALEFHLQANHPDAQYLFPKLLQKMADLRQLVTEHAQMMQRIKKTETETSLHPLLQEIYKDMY
pEC50: −log10 of the molar value.
Recorded pEC50 for the following molecules
observation type: pEC50

>  <structure>
Cc1nc(-c2ccc(C(F)(F)F)cc2)sc1CNCc1ccc(OC(C)(C)C(=O)O)cc1

>  <inequality symbol>
=

>  <recorded value>
5.39

$$$$
>  <structure>
Cc1nc(-c2cccc(C(F)(F)F)c2)sc1C(=O)NCc1ccc(OC(C)(C)C(=O)O)cc1

>  <inequality symbol>
<

>  <recorded value>
4.60

$$$$
>  <structure>
Cc1nc(-c2ccc(C(F)(F)F)cc2)sc1CNC(=O)c1ccc(OC(C)(C)C(=O)O)cc1

>  <inequality symbol>
=

>  <recorded value>
5.20

$$$$
>  <structure>
Cc1nc(-c2ccc(C(F)(F)F)cc2)sc1C(=O)N(C)Cc1ccc(OC(C)(C)C(=O)O)cc1

>  <inequality symbol>
<

>  <recorded value>
5.00

$$$$
>  <structure>
Cc1nc(-c2ccc(O)cc2)sc1C(=O)NCc1ccc(OC(C)(C)C(=O)O)cc1

>  <inequality symbol>
<

>  <recorded value>
5.00

$$$$
>  <structure>
Cc1nc(-c2ccc(C(F)(F)F)cc2)sc1C(=O)NCCc1ccc(OC(C)(C)C(=O)O)cc1

>  <inequality symbol>
<

>  <recorded value>
5.00

$$$$
>  <structure>
CC(C)(Oc1ccc(CNC(=O)c2sc(-c3ccc(C(F)(F)F)cc3)nc2C(F)(F)F)cc1)C(=O)O

>  <inequality symbol>
=

>  <recorded value>
5.08

$$$$
>  <structure>
Cc1nc(-c2ccc([N+](=O)[O-])cc2)sc1C(=O)NCc1ccc(OC(C)(C)C(=O)O)cc1

>  <inequality symbol>
<

>  <recorded value>
5.00

$$$$
>  <structure>
Cc1nc(-c2ccc(C(F)(F)F)cc2)sc1CCc1ccc(OC(C)(C)C(=O)O)cc1

>  <inequality symbol>
=

>  <recorded value>
7.70

$$$$
>  <structure>
COc1ccc(-c2nc(C)c(C(=O)NCc3ccc(OC(C)(C)C(=O)O)cc3)s2)cc1

>  <inequality symbol>
<

>  <recorded value>
5.00

$$$$
>  <structure>
Cc1nc(-c2ccc(C(F)(F)F)cc2)sc1C(=O)Nc1ccc(OC(C)(C)C(=O)O)cc1

>  <inequality symbol>
<

>  <recorded value>
5.00

$$$$
>  <structure>
Cc1nc(-c2ccc(C(C)(C)C)cc2)sc1C(=O)NCc1ccc(OC(C)(C)C(=O)O)cc1

>  <inequality symbol>
<

>  <recorded value>
5.00

$$$$
>  <structure>
Cc1nc(-c2ccc(F)cc2)sc1C(=O)NCc1ccc(OC(C)(C)C(=O)O)cc1

>  <inequality symbol>
<

>  <recorded value>
5.00

$$$$
>  <structure>
Cc1nc(-c2ccc(N)cc2)sc1C(=O)NCc1ccc(OC(C)(C)C(=O)O)cc1

>  <inequality symbol>
<

>  <recorded value>
5.00

$$$$
>  <structure>
Cc1nc(C(=O)NCc2ccc(OC(C)(C)C(=O)O)cc2)c(C)s1

>  <inequality symbol>
=

>  <recorded value>
6.18

$$$$
>  <structure>
Cc1cc(CCc2sc(-c3ccc(C(F)(F)F)cc3)nc2C)ccc1OCC(=O)O

>  <inequality symbol>
=

>  <recorded value>
8.40

$$$$
>  <structure>
Cc1nc(-c2ccccc2C(F)(F)F)sc1C(=O)NCc1ccc(OC(C)(C)C(=O)O)cc1

>  <inequality symbol>
=

>  <recorded value>
6.09

$$$$
>  <structure>
Cc1nc(-c2ccc(C(F)(F)F)cc2)sc1C(=O)NCc1ccc(OC(C)(C)C(=O)O)cc1

>  <inequality symbol>
=

>  <recorded value>
5.55

$$$$
>  <structure>
Cc1nc(-c2ccc(OS(C)(=O)=O)cc2)sc1C(=O)NCc1ccc(OC(C)(C)C(=O)O)cc1

>  <inequality symbol>
<

>  <recorded value>
5.00

$$$$

====

assay: Plasma clearance in Beagle dog at 2 mg/kg, iv; format: ADME, organism-based, Canis lupus familiaris; set-up: dose 2 mg/kg, route intravenous

>  <structure>
Cc1nc(-c2ccc(C(F)(F)F)cc2)sc1C(=O)NCc1ccc(OC(C)(C)C(=O)O)cc1

>  <clearance (mL/min/kg)>
13

$$$$

====

experiment: Bioavailability in Wistar rat at 3 mg/kg, po; assay type: ADME, organism-based; conditions: in vivo
observation type: bioavailability (%)

>  <molecule>
Cc1nc(-c2ccc(C(F)(F)F)cc2)sc1C(=O)NCc1ccc(OC(C)(C)C(=O)O)cc1 [GW590735]

>  <value units>
%

>  <recorded value>
47

$$$$

====

molecular target: Peroxisome proliferator-activated receptor alpha (Homo sapiens)
Sequence (Q07869 whole entry): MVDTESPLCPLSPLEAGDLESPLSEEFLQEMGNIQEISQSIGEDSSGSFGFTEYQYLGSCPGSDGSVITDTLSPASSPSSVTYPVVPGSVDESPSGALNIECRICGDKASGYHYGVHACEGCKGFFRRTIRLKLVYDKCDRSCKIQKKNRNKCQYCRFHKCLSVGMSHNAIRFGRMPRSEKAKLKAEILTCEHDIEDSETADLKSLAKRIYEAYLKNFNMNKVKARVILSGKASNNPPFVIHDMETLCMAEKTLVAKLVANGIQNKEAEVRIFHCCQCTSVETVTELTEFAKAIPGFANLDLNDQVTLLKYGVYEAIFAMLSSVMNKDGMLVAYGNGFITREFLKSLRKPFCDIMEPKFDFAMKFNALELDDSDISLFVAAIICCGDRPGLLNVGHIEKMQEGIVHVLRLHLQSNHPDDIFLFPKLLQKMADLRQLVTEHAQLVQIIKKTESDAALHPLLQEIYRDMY
pEC50: −log10 of the molar value.
Output fulfilled for pEC50 not less than 7; output not fulfilled otherwise.

>  <structure>
Cc1nc(-c2ccc(O)cc2)sc1C(=O)NCc1ccc(OC(C)(C)C(=O)O)cc1

>  <assayed target>
Peroxisome proliferator-activated receptor alpha (Homo sapiens)

>  <assigned class>
not fulfilled

$$$$
>  <structure>
Cc1nc(-c2ccc(F)cc2)sc1C(=O)NCc1ccc(OC(C)(C)C(=O)O)cc1

>  <assayed target>
Peroxisome proliferator-activated receptor alpha (Homo sapiens)

>  <assigned class>
fulfilled

$$$$
>  <structure>
Cc1cc(CCc2sc(-c3ccc(C(F)(F)F)cc3)nc2C)ccc1OCC(=O)O

>  <assayed target>
Peroxisome proliferator-activated receptor alpha (Homo sapiens)

>  <assigned class>
not fulfilled

$$$$
>  <structure>
Cc1nc(-c2ccc(C(F)(F)F)cc2)sc1CNC(=O)c1ccc(OC(C)(C)C(=O)O)cc1

>  <assayed target>
Peroxisome proliferator-activated receptor alpha (Homo sapiens)

>  <assigned class>
not fulfilled

$$$$
>  <structure>
Cc1nc(-c2ccc(C(F)(F)F)cc2)sc1C(=O)N(C)Cc1ccc(OC(C)(C)C(=O)O)cc1

>  <assayed target>
Peroxisome proliferator-activated receptor alpha (Homo sapiens)

>  <assigned class>
not fulfilled

$$$$
>  <structure>
COc1ccc(-c2nc(C)c(C(=O)NCc3ccc(OC(C)(C)C(=O)O)cc3)s2)cc1

>  <assayed target>
Peroxisome proliferator-activated receptor alpha (Homo sapiens)

>  <assigned class>
fulfilled

$$$$
>  <structure>
Cc1nc(-c2cccc(C(F)(F)F)c2)sc1C(=O)NCc1ccc(OC(C)(C)C(=O)O)cc1

>  <assayed target>
Peroxisome proliferator-activated receptor alpha (Homo sapiens)

>  <assigned class>
fulfilled

$$$$
>  <structure>
Cc1nc(C(=O)NCc2ccc(OC(C)(C)C(=O)O)cc2)c(C)s1

>  <assayed target>
Peroxisome proliferator-activated receptor alpha (Homo sapiens)

>  <assigned class>
not fulfilled

$$$$
>  <structure>
Cc1nc(-c2ccc(C(F)(F)F)cc2)sc1C(=O)Nc1ccc(OC(C)(C)C(=O)O)cc1

>  <assayed target>
Peroxisome proliferator-activated receptor alpha (Homo sapiens)

>  <assigned class>
not fulfilled

$$$$
>  <structure>
Cc1nc(-c2ccc([N+](=O)[O-])cc2)sc1C(=O)NCc1ccc(OC(C)(C)C(=O)O)cc1

>  <assayed target>
Peroxisome proliferator-activated receptor alpha (Homo sapiens)

>  <assigned class>
fulfilled

$$$$
>  <structure>
Cc1nc(-c2ccc(N)cc2)sc1C(=O)NCc1ccc(OC(C)(C)C(=O)O)cc1

>  <assayed target>
Peroxisome proliferator-activated receptor alpha (Homo sapiens)

>  <assigned class>
not fulfilled

$$$$
>  <structure>
Cc1nc(-c2ccc(C(F)(F)F)cc2)sc1CCc1ccc(OC(C)(C)C(=O)O)cc1

>  <assayed target>
Peroxisome proliferator-activated receptor alpha (Homo sapiens)

>  <assigned class>
not fulfilled

$$$$
>  <structure>
Cc1nc(-c2ccc(Cl)cc2)sc1C(=O)NCc1ccc(OC(C)(C)C(=O)O)cc1

>  <assayed target>
Peroxisome proliferator-activated receptor alpha (Homo sapiens)

>  <assigned class>
fulfilled

$$$$
>  <structure>
CC(C)(Oc1ccc(CNC(=O)c2sc(-c3ccc(C(F)(F)F)cc3)nc2C(F)(F)F)cc1)C(=O)O

>  <assayed target>
Peroxisome proliferator-activated receptor alpha (Homo sapiens)

>  <assigned class>
fulfilled

$$$$
>  <structure>
Cc1nc(-c2ccccc2C(F)(F)F)sc1C(=O)NCc1ccc(OC(C)(C)C(=O)O)cc1

>  <assayed target>
Peroxisome proliferator-activated receptor alpha (Homo sapiens)

>  <assigned class>
not fulfilled

$$$$
>  <structure>
Cc1nc(-c2ccc(OS(C)(=O)=O)cc2)sc1C(=O)NCc1ccc(OC(C)(C)C(=O)O)cc1

>  <assayed target>
Peroxisome proliferator-activated receptor alpha (Homo sapiens)

>  <assigned class>
not fulfilled

$$$$
